- target-or-system: T1, human TROP2 protein (Sino Biological, #10428-H08H) (human, UniProt P09758 27-274)
- T1 construct: bought protein; also called human Trop2 protein antigen (His tag); not shown: His tag
- T1 sequence (looked up): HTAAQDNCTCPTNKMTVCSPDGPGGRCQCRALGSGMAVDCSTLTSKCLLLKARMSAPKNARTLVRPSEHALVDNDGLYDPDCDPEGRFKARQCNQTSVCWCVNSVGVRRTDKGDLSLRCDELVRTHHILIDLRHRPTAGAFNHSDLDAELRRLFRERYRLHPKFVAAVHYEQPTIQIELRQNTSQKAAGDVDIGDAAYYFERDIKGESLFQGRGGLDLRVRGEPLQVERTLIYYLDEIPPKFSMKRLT
- assay-explanation: BLI, Octet RED96, AHC sensor
Quick list: Kd per entry.
measured-quantity: Kd (nM)

[[record]]
binder = "PR001151 (antibody, human IgG1, kappa, V domains shown, fully human IgG1/kappa; also called antibody No. (14)) VH: QVQLVESGGGVVQPGRSLRLSCAASGFTFSHYGMHWVRQAPGKGLEWVAVIWYDGIKKDYVESVKGRFTISRDNSKNTLYLQMNRLRAEDTAVYYCARDGGFGELNYYGLDVWGQGTTVTVSS VL: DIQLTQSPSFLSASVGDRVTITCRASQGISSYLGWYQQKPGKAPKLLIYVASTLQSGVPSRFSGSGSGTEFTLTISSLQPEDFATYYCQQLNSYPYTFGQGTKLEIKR"
value_qualifier = "="
recorded_number = 1.12

[[record]]
binder = "PR001142 (antibody, human IgG1, kappa, V domains shown, fully human IgG1/kappa; also called antibody No. (9)) VH: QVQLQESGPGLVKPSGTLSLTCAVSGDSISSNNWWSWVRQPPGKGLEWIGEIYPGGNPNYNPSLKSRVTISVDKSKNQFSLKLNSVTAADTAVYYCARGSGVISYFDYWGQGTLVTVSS VL: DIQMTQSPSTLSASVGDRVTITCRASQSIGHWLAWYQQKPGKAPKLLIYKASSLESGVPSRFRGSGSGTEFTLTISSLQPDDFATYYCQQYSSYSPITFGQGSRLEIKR"
value_qualifier = "="
recorded_number = 0.323

[[record]]
binder = "PR001159 (antibody, human IgG1, kappa, V domains shown, fully human IgG1/kappa; also called antibody No. (21)) VH: QVQLVESGGGVVQPGRSLRLSCEASGFTFSHYGMHWVRQAPGKGLEWVAVIWYDGIKTNYVESVKGRFTISRDNSKNTLNLQMNRLRAEDTAVYYCARDGGFGESNYYGLDVWGQGTTVTVSS VL: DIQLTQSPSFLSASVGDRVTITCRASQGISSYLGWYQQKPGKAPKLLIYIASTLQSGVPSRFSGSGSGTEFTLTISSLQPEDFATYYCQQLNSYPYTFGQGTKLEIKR"
value_qualifier = "<"
recorded_number = 0.001

